Entry source: ChEMBL document CHEMBL5316287

# SYSTEM NAME: Histone acetyltransferase p300 (Homo sapiens)
# Sequence (Q09472 whole entry): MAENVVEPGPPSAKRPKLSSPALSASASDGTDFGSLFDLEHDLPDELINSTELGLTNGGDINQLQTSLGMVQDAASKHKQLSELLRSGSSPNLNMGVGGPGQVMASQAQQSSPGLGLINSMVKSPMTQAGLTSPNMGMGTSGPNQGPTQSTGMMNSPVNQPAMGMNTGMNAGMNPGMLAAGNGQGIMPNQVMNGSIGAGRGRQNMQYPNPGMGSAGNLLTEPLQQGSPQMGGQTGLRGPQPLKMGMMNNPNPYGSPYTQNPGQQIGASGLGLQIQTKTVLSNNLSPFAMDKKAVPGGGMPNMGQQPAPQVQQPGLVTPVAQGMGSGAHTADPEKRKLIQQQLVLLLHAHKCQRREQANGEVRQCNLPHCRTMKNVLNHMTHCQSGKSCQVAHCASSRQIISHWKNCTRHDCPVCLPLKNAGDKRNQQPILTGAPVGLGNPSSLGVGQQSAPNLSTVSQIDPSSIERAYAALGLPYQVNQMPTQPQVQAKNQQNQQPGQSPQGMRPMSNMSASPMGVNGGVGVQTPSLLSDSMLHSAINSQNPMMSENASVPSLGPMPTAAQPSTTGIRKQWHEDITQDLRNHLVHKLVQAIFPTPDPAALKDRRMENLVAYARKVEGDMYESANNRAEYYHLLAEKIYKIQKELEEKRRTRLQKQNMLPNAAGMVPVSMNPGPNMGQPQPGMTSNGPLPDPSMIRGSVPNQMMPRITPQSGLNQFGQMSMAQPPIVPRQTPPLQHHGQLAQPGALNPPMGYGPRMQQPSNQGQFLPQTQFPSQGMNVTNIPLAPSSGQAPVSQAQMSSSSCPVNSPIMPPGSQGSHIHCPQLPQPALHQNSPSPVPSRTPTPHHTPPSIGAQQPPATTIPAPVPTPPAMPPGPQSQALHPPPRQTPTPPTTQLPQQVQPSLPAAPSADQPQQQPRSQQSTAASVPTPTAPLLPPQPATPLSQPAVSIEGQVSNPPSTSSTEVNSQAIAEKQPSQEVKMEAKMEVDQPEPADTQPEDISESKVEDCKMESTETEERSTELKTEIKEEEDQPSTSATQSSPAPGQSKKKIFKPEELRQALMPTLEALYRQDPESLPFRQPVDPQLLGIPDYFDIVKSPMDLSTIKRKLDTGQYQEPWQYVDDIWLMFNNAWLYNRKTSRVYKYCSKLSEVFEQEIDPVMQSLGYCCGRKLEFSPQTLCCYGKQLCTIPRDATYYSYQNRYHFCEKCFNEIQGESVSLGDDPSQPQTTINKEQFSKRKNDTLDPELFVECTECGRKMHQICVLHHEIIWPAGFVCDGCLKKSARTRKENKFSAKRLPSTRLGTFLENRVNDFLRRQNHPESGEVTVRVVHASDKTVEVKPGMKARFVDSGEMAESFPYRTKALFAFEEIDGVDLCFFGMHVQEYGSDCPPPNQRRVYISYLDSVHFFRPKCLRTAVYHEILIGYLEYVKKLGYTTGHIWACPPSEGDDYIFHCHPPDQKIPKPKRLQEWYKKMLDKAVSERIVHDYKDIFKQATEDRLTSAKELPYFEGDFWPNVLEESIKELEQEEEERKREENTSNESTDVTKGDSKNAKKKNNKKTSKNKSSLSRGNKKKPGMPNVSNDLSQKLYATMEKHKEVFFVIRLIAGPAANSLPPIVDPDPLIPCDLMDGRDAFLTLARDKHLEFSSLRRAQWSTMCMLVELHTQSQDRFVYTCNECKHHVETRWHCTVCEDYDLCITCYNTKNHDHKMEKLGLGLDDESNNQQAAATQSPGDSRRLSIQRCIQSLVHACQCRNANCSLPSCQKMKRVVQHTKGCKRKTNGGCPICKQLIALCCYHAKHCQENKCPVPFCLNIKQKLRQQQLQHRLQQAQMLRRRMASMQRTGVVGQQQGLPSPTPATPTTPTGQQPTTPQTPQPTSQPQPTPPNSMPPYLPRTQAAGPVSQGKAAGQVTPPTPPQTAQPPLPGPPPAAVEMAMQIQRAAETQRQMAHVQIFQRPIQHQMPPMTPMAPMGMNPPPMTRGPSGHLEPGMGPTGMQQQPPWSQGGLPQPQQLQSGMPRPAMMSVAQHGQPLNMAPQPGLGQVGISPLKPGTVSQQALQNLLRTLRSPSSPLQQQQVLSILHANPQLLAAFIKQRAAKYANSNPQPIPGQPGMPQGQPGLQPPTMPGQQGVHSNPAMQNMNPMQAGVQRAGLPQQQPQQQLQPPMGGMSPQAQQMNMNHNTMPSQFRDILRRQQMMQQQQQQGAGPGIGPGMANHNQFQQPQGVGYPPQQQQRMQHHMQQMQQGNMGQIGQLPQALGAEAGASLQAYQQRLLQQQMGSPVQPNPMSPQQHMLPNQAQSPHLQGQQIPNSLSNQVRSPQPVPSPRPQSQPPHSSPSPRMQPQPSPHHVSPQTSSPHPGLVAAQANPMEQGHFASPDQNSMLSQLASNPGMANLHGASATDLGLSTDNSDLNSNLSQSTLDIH
# RUN DESCRIPTION: Inhibition of EP300 in human LK2 cells assessed as reduction in intracellular H3K27 acetylation incubated for 3 hrs by chemiluminescence based ELISA
# Format: cell-based
QUANTITY: IC50 (nM)
Numbers only, in nM.

Some solved cases for reference:
COc1ccc(C(C)(C)C(=O)N2C[C@H](F)C[C@@H]2C(=O)Nc2ccc3[nH]ncc3n2)cc1 77
COc1ccc(C2(C(=O)N3C[C@H](F)C[C@@H]3C(=O)Nc3ccc4[nH]ncc4n3)CCOCC2)cc1 101
CS(=O)(=O)c1ccc(C2(C(=O)N3C[C@H](F)C[C@@H]3C(=O)Nc3ccc4[nH]ncc4n3)CCC(F)(F)CC2)cc1 95
COc1ccc(C2(C(=O)N3C[C@H](O)C[C@@H]3C(=O)Nc3ccc4[nH]ncc4n3)CCCCC2)cc1 106
COc1ccc(C2(C(=O)N3CCC[C@@H]3C(=O)Nc3ccc4cn[nH]c4c3)CCCC2)cc1 2790

Provide the reported IC50 of each entry below, same order.
1. COc1ccc(C2(C(=O)N3C[C@H](F)C[C@@H]3C(=O)Nc3ccc4[nH]ncc4n3)CC(F)(F)C2)cc1
2. COc1c(F)cc(C2(C(=O)N3C[C@H](F)C[C@@H]3C(=O)Nc3ccc4[nH]ncc4n3)CCC(F)(F)CC2)cc1F
3. COc1ccc(C2(C(=O)N3CS(=O)(=O)C[C@@H]3C(=O)Nc3ccc4[nH]ncc4n3)CCCCC2)cc1
4. COc1ccc(C2(C(=O)N3CCC[C@@H]3C(=O)Nc3ccc4[nH]ncc4c3)CCCC2)cc1

1. 20
2. 142
3. 27
4. 916

---

# RUN DESCRIPTION: Metabolic stability in mouse liver microsomes assessed as intrinsic clearance at 1 uM
# Assay type: ADME, Microsome
Please go through the items and note down their intrinsic clearance (CLint).
Reply with a number, then the unit it belongs to.

The cases that follow already have their intrinsic clearance (CLint) on record.
COc1ccc(C2(C(=O)N3C[C@H](F)C[C@@H]3C(=O)Nc3ccc4[nH]ncc4n3)CCCCC2)cn1 160 µL/min/mg
COc1ccc(C2(C(=O)N3C[C@H](F)C[C@@H]3C(=O)Nc3ccc4[nH]ncc4n3)CCCCC2)cc1 770 µL/min/mg
COc1ccc(C2(C(=O)N3C[C@H](F)C[C@@H]3C(=O)Nc3ccc4[nH]ncc4n3)CCCCC2)cc1F 400 µL/min/mg

Hi there! I need intrinsic clearance (CLint) for each item below, if you can.
1. O=C(Nc1ccc2[nH]ncc2n1)[C@H]1C[C@@H](F)CN1C(=O)C1(c2ccc(C(=O)C(F)(F)F)cc2)CCCCC1
2. COc1ccc(C2(C(=O)N3C[C@H](F)C[C@@H]3C(=O)Nc3ccc4[nH]ncc4n3)CCC(F)(F)CC2)cc1

380 µL/min/mg
50 µL/min/mg
